Source listed as PubChem BioAssay AID2314.

Some compounds, each annotated with its measured max response.
# assayProcedure: Cycloheximide Counterscreen for Small Molecule Inhibitors of Shiga Toxin; further: read at 38.3 µM for the half of the compounds with a filed dose; 0% is about no effect
# conditionParameters: cell reporter, cycloheximide protein synthesis inhibition counterscreen; stronger effect = higher value
In all, about 300,000 compounds went through this assay and about 37,000 (12%) were called active. Only a selection was taken, and actives are over-represented in it overall.
propertyLabel: max response (%)

* CSc1cccc(NC(=O)CSc2ccccc2)c1 | 39.6
* O=C(NCCNc1ccc([N+](=O)[O-])cc1Cl)c1ccccc1F | 12.9
* COC(=O)c1c(NC(C)=O)sc(C(=O)Nc2ccccc2OC)c1C | -2
* Cc1csc(NC(=O)c2ccc(-c3ccc(Cl)cc3Cl)o2)n1 | 11.3
* CCc1ccc2c(c1)C(c1ccc([N+](=O)[O-])cc1)=NNC(c1ccccc1)=N2 | 33.3
* CC(=O)c1ccc(S(=O)(=O)N(C)CCCC(=O)N(C)Cc2ccccc2F)cc1 | 2.54
* COC(=O)c1nc2n(n1)C(c1ccc([N+](=O)[O-])cc1)C(C(=O)Nc1ccc(Cl)cc1)=C(C)N2 (stereo unspecified) | -2.4
* CN(/C(=N/S(=O)(=O)c1cccs1)c1ccccc1)c1ccc(O)cc1 | 11.5
* Cc1cc(C)cc(NC(=O)CCN2C(=O)c3ccccc3C2=O)c1 | 7.24
* COc1ccc(C(=O)COC(=O)CNC(=O)c2cccs2)cc1Br | -4.46
* Cc1nc2ccc(C(=O)O)cc2[nH]1 | -7.8
* CC(C)C(=O)OCC(=O)Nc1ccc2c(c1)CCC2 | 2.17
* Cc1cccc(NC(=S)Nc2ccc3cn[nH]c3c2)c1 | 7.4
* COc1ccc(CCNC(=O)C2CCCN(Cc3nc(-c4cccc(Cl)c4)oc3C)C2)cc1OC (stereo unspecified) | 6.92
* CC(=O)c1ccc(OCC(O)CN2CCN(S(=O)(=O)c3cccc(Br)c3)CC2)cc1 (stereo unspecified) | -0.615
* O=[N+]([O-])c1ccccc1NCc1ccccc1Cl | 0.768
* CCn1c(SCC(=O)Nc2nc(C)cs2)nnc1C(C)NC(=O)c1ccccc1 (stereo unspecified) | 1.33
* CCC1OC(c2ccc([N+](=O)[O-])cc2)=Nc2ccccc21 (stereo unspecified) | -5.5
* O=C(C1=C(O)C(=O)N(CCOCCO)C1c1ccccn1)c1cccs1 (stereo unspecified) | 15.5
* O=C(NCC1CCN(Cc2ccccc2Cl)CC1)Nc1cccc(Cl)c1 | 9.67
* Cc1cc(C)cc(NC(=O)CN2C(=O)c3ccccc3C2=O)c1 | -2.91
* Cc1ccc(S(=O)(=O)NCC2CCC(C(=O)N3CCOCC3)CC2)cc1 (stereo unspecified) | 3.28
* CCc1cccc(CC)c1NC(=S)Nc1ccc2cn[nH]c2c1 | -0.951
* O=[N+]([O-])c1ccccc1NCc1ccc(Cl)cc1 | 19.5
* O=C(CCC(=O)c1cccs1)NC1CCCCCC1 | 21.2
* CN(C)CCCN=Cc1c(O)n(Cc2ccco2)c(=O)[nH]c1=O | 8
* COc1ccccc1NC(=O)c1ccc(C)s1 | 64
* O=C(C1=C(O)C(=O)N(c2ncccn2)C1c1cccs1)c1ccco1 (stereo unspecified) | 0.951
* O=C(NCCNc1ccccc1[N+](=O)[O-])c1ccccc1F | 46.4
* Cc1cccc(NC(=S)Nc2ccc(Cl)c(Cl)c2)c1 | -1.87
* CC(=O)N1c2ccc(S(=O)(=O)N3CCCC(C(=O)Nc4cccc(Cl)c4)C3)cc2CC1C (stereo unspecified) | -3.38
* Cc1ccc(C2=Nc3c(ccc4ccccc34)C(c3ccncc3)=NN2)cc1 | 1.6
* Cc1ccc(CNC(=O)c2c(-c3ccccc3)noc2C)cc1 | -2.32
* CC(=O)c1cccc(NC(=O)c2ccncc2)c1 | 7.01
* Cc1cs/c(=N\N=C\c2ccc(O)cc2)n1Cc1ccco1 | 21.5
* CCOC(=O)Cn1c(O)c(N=NC(=O)CNC(=O)Cc2ccccc2)c2ccccc21 | 5.93
* O=C(CSc1ccccc1)Nc1cc(Cl)ccc1Oc1ccccc1 | -2.3
* COc1ccccc1NC(=O)C1=C(C)NC(=O)NC1c1ccc(C)s1 (stereo unspecified) | -3.68
* Cc1ccc(S(=O)(=O)/N=C(\CN2CCOCC2)N2CCOCC2)cc1 | -4.56
* CC(C)n1c(=O)c(C=Nc2ccc(Br)cc2)c(O)n(Cc2ccco2)c1=O | -2.65
* CC1CN(CCCOc2ccccc2-c2ccccc2)CC(C)O1 (stereo unspecified) | -3.01
* Cc1nnc(SCC(=O)Nc2cccc(N)c2)n1-c1ccccc1 | -3.71
* Cc1cc(C)c(C#N)c(SCC(=O)Nc2ccccc2)n1 | 14
* Cc1cc(C)cc(NC(=O)CSc2ccccc2)c1 | 18.6
* Cc1csc(NC(=S)Nc2cccc(Cl)c2)n1 | 41.1
* O=C(CSc1ccccc1)Nc1ccc(C(=O)Nc2cccc(O)c2)cc1 | 32.4
